# tested on: T1, Human OSM (human, UniProt P13725 26-221)
# T1 construct: Recombinant human OSM; also called hOSM; human Oncostatin M
# T1 sequence: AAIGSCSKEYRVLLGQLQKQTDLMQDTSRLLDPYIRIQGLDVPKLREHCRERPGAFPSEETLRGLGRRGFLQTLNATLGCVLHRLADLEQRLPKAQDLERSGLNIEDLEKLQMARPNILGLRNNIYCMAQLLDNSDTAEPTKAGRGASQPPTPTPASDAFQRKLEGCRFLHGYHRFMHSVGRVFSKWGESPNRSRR
# method notes: SPR (ProteOn XPR36 or Biacore T100), captured supernatant, OSM as analyte
# Description: The initial kinetic analyses for the CDRH3 screen were carried out on the ProteOn XPR36 (Biorad Laboratories) and certain supernatants were selected for more accurate kinetic analysis on the BiaCore T100. For the ProteOn analysis, anti-human IgG (GE Healthcare/Biacore BR-1008-39) was coupled to a GLM chip (Biorad Laboratories 176-5012) by primary amine coupling. […]
test readout: pKd
One number for each entry, as −log10 of the molar value.

Look up pKd of Pos 100D Gly (antibody, V domains shown, also called CDRH3 F100D>G) VH: EVQLVESGGGLVQPGGSLRLSCAASGFTFSSYAMSWVRQAPGKGLEWVATISDGGSFTYYLDNVRGRFTISRDNAKNSLYLQMNSLRAEDTAVYYCARDVGHTTFWYGDVWGRGTLVTVSS VL: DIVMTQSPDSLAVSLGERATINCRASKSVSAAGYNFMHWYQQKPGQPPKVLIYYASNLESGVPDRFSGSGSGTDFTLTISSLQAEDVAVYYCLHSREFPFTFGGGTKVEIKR and report it.
9.18
